- Measurement Protocol: CCTE_Deisenroth_5AR_NBTE_acceptor: CCTE's 5alpha-reductase NanoBRET Target Engagement Assay - Autofluorescence Screen, Deisenroth Lab (AID 2284321);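 note: compound fluorescence in the acceptor channel under 460 nm excitation flags autofluorescence artifacts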
- Assay Setup: actives raise or lower the signal
Active and inactive are the calls of the source. Rule for the calls: active = hit-call score of the fitted dose curve at least 0.9, where 1 is the maximum; inactive = score below 0.9.
The reply should name one outcome from 1.0 for active, 0.0 for inactive

Completed entries (count: 5):
Compound | Assigned Category
C[C@H]1CCCC(=O)CCC/C=C/c2cc(O)cc(O)c2C(=O)O1 | 0.0
CCN1CCC2(CC1)COc1cc3c(cc12)N(C(=O)c1ccc(-c2ccc(-c4nnc(C)o4)cc2C)cc1)CC3 | 1.0
O=C(Nc1ccc2[nH]ccc2c1)c1cc2cc(F)ccc2n1Cc1cccc(F)c1 | 0.0
O=C(OC1CCCCC1)c1ccccc1C(=O)OC1CCCCC1 | 0.0
C[C@@H]1C[C@@H]([C@H](O)CC2CC(=O)NC(=O)C2)C(=O)[C@@H](C)C1 | 0.0

input: Entry O=[N+]([O-])c1ccc(O)c([N+](=O)[O-])c1 : call = ?
output: 0.0

input: Record: CCC[CH2][Sn]([CH2]CCC)([CH2]CCC)[O]C(=O)c1ccccc1
output: 1.0

input: Record: CC(=O)[O][Hg][c]1ccccc1
output: 1.0

input: Record: O=C1C(Cl)=C(Cl)C(=O)c2ccccc21
output: 0.0

input: Record: CCC1(c2ccc(N)cc2)CCC(=O)NC1=O (configuration not stated)
output: 0.0

input: Record: O=C(O)C(F)(F)C(F)(F)C(F)(F)C(F)(F)C(F)(F)C(F)(F)C(F)(F)C(F)(F)C(F)(F)C(F)(F)F
output: 0.0

input: Record: CCOP(=S)(OCC)Oc1nc(Cl)c(Cl)cc1Cl
output: 0.0

----------
- Target Under Test: human Esterase Plasma (ES), BCHE (gene 590) (UniProt P06276)
- Sequence (P06276 whole entry, looked up): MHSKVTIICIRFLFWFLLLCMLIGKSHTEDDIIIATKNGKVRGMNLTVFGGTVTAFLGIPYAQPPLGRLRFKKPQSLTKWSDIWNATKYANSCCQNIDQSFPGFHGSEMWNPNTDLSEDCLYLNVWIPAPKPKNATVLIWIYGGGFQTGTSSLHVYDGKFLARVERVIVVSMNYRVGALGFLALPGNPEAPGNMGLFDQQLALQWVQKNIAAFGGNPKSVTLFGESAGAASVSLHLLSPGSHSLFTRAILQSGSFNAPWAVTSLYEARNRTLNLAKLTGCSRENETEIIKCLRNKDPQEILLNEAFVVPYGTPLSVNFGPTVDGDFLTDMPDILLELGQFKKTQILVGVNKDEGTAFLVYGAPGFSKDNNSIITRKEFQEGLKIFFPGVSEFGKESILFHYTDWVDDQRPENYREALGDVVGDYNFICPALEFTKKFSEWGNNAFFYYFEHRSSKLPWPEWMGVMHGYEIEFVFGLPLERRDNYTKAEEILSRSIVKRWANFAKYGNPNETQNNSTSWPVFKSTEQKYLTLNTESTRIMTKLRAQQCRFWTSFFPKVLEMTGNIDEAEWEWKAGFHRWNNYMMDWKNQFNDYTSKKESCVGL
- Measurement Protocol: NVS_ENZ_hES: NovaScreen (NVS) Enzymatic Assay for human Esterase Plasma (ES) (AID 2283157)
Inconclusive results are not listed. Active and inactive are the calls of the source. Rule for the calls: active = hit-call score of the fitted dose curve at least 0.9, where 1 is the maximum; inconclusive = response in the unintended direction; inactive = score below 0.9.
The reply should name one outcome from class 1 (active), class 0 (inactive)

Structure String | Target Under Test | Assigned Category
COP(=S)(OC)Oc1ccc(S(=O)(=O)N(C)C)cc1 | human Esterase Plasma (ES), BCHE (gene 590) (UniProt P06276) | class 1

input: Entry CC(=O)[O][Hg][c]1ccccc1 : call = ?
output: class 0

input: Record: CCN1CCC2(CC1)COc1cc3c(cc12)N(C(=O)c1ccc(-c2ccc(-c4nnc(C)o4)cc2C)cc1)CC3
output: class 1

input: Record: CCOP(=S)(OCC)Oc1nc(Cl)c(Cl)cc1Cl
output: class 1

input: Record: Cn1sc(Cl)cc1=O
output: class 0

input: Record: O=C(O)C(F)(F)C(F)(F)C(F)(F)C(F)(F)C(F)(F)C(F)(F)C(F)(F)C(F)(F)C(F)(F)C(F)(F)F
output: class 0

input: Record: CCOP(=S)(OCC)SCSP(=S)(OCC)OCC
output: class 0

----------
- Target Under Test: human Retinoid X Receptor beta (RXRb), RXRB (gene 6257)
- Measurement Protocol: ATG_RXRb_TRANS: Attagene TRANS-FACTORIAL HepG2 Assay for human Retinoid X Receptor beta (RXRb) (AID 2283013)
Records with an inconclusive call do not appear. The source made the active and inactive calls. How the source made its calls: active means hit-call score of the fitted dose curve at least 0.9, where 1 is the maximum; inconclusive means response in the unintended direction; inactive means score below 0.9.
The reply should name one outcome from active, inactive

Completed entries (count: 5):
Molecule | Target Under Test | Assigned Category
CCC(C)(C)c1ccc(O)c(C(C)(C)CC)c1 | human Retinoid X Receptor beta (RXRb), RXRB (gene 6257) | active
Cc1ccccc1C(=O)Nc1cccc(OC(C)C)c1 | human Retinoid X Receptor beta (RXRb), RXRB (gene 6257) | inactive
CCC(C)c1cccc(C(C)CC)c1O (centres undefined) | human Retinoid X Receptor beta (RXRb), RXRB (gene 6257) | active
O=[N+]([O-])c1c(Cl)c(Cl)cc(Cl)c1Cl | human Retinoid X Receptor beta (RXRb), RXRB (gene 6257) | active
ClCCBr | human Retinoid X Receptor beta (RXRb), RXRB (gene 6257) | inactive

input: Entry CCCCCCCCCl : call = ?
output: inactive

input: Record: Clc1ccc(COC(Cn2ccnc2)c2ccc(Cl)cc2Cl)cc1 (centres undefined)
output: active

input: Record: Cc1cc(=O)[nH]o1
output: inactive

input: Record: CC(C)c1cccc(C(C)C)c1O
output: active
